# pIC50 values compiled below
target: Smo wild type (Homo sapiens); experiment: Reporter assay of C3H10T1/2-Gli-Luc cells transfected with wild-type Smo, without SAG; conditions: C3H10T1/2 cells transfected with pLPCX-SMO, no SAG, 48 hr; read-out: Inhibition of C3H10T1/2-Gli-Luc-Smo-WT [IC50
Sequence (Q99835 28-787): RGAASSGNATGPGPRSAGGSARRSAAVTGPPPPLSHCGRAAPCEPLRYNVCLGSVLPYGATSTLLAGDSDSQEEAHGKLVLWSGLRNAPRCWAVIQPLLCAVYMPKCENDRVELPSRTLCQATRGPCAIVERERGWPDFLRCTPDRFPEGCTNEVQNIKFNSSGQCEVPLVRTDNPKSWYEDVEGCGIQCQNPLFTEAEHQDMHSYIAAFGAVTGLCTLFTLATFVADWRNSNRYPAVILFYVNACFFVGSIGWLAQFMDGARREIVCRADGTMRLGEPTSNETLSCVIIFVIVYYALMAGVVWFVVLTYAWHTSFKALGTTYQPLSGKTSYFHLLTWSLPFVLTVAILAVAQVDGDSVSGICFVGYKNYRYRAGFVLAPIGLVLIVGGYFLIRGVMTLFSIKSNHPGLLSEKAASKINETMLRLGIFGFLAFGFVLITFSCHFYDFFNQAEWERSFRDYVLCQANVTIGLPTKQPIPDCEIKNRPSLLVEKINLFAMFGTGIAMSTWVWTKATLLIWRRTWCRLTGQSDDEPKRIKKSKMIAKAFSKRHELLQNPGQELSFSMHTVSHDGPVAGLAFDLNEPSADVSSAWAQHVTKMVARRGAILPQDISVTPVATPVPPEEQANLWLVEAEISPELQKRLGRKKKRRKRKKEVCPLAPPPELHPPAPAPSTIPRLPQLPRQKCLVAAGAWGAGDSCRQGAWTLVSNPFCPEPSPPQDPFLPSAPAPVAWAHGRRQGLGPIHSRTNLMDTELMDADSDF
pIC50: −log10 of the molar value.

Solved cases below.
CSc1cnc(Nc2ccc(C(=O)Nc3cc(CN4CCOCC4)ccc3C)cc2)nc1-c1ccncc1 ... > 7.00
CSc1cnc(Nc2ccc(C(=O)Nc3cc(CN4CCN(C)CC4)ccc3C)cc2)nc1-c1ccc(OC(F)(F)F)cc1 ... > 7.00
COc1cnc(Nc2ccc(C(=O)Nc3cc(CN4CCNCC4)ccc3C)cc2)nc1-c1ccc(F)cc1 ... 6.00 to 7.00

Suppose we examine the compound CCN(CC)Cc1ccc(C)c(NC(=O)c2ccc(Nc3ncc(OC)c(-c4ccc(C#N)cc4)n3)cc2)c1 ; what pIC50 value has been reported?
> 7.00

// query: CCN(CC)Cc1ccc(C)c(NC(=O)c2ccc(Nc3ncc(SC)c(-c4ccc(OC(F)(F)F)cc4)n3)nc2)c1
> 7.00

----------
molecular target: Smo D473H mutant (Homo sapiens, UniProt Q99835, D473H); assay: Reporter assay of C3H10T1/2-Gli-Luc cells transfected with Smo D473H mutant, without SAG; details: C3H10T1/2 cells transfected with pLPCX-SMO-D473H, no SAG, 48 hr; read-out: Inhibition of C3H10T1/2-Gli-Luc-Smo-D473H [IC50
Sequence (Q99835 28-787 D473H): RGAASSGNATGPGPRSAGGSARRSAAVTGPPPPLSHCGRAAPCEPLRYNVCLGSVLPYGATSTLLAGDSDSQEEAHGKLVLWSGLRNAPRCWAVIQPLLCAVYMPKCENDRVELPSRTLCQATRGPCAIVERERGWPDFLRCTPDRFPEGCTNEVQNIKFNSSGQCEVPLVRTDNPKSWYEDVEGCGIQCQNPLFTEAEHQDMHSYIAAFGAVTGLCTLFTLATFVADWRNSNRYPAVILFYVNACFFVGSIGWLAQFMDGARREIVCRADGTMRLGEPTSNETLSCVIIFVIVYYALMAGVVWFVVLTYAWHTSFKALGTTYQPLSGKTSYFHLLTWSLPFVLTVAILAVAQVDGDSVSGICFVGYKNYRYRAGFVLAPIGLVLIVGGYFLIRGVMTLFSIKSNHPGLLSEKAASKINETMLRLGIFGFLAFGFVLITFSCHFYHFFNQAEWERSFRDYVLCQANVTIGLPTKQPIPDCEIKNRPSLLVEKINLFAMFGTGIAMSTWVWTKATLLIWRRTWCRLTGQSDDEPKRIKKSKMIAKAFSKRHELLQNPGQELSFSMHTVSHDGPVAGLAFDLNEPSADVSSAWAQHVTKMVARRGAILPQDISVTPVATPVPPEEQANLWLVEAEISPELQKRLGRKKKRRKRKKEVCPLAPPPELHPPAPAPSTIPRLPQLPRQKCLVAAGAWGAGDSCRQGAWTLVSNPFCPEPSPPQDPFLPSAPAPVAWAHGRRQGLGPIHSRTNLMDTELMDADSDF
pIC50: −log10 of the molar value.
READOUT_NAME: pIC50

Solved cases below.
CCN(CC)Cc1ccc(C)c(NC(=O)c2ccc(Nc3ncc(OC)c(-c4ccc(OC(F)(F)F)cc4)n3)c(F)c2)c1 ... 6.00 to 7.00
COc1cccc(C)c1NC(=O)c1ccc(Nc2ncc(SC)c(-c3ccc(F)nc3)n2)c(F)c1 ... 6.00 to 7.00
CSc1cnc(Nc2ccc(C(=O)Nc3cc(CN4CCOCC4)ccc3F)cc2F)nc1-c1ccc(F)cc1 ... 6.00 to 7.00

Suppose we examine the compound CCN(CC)Cc1cccc(NC(=O)c2ccc(Nc3ncc(SC)c(-c4ccc(OC(F)(F)F)cc4)n3)c(F)c2)c1 ; what pIC50 value has been reported?
6.00 to 7.00

// query: COc1cccc(OC)c1NC(=O)c1ccc(Nc2ncc(SC)c(-c3cccnc3F)n2)c(F)c1
6.00 to 7.00

// query: CSc1cnc(Nc2ccc(C(=O)Nc3cc(CN4CCNCC4)ccc3C)cc2F)nc1-c1ccc(F)cc1
6.00 to 7.00

// query: CCN(CC)Cc1ccc(C)c(NC(=O)c2ccc(Nc3ncc(SC)c(-c4ccc(OC(F)(F)F)cc4)n3)nc2)c1
6.00 to 7.00

// query: CSc1cnc(Nc2ccc(C(=O)Nc3c(C)cccc3C)cc2)nc1-c1ccc(OC(F)(F)F)cc1
< 6.00

// query: CSc1cnc(Nc2ccc(C(=O)Nc3cc(CN4CCOCC4)ccc3C)cc2)nc1-c1cnn(C)c1
6.00 to 7.00

// query: CSc1cnc(Nc2ccc(C(=O)Nc3cc(CN4CCCCC4)ccc3C)cc2)nc1-c1ccc(C(F)(F)F)cc1
6.00 to 7.00

// query: CSc1cnc(Nc2ccc(C(=O)Nc3cc(CN(C)C)ccc3C)cc2)nc1-c1ccc(OC(F)(F)F)cc1
6.00 to 7.00

// query: CSc1cnc(Nc2ccc(C(=O)Nc3cc(CN(C)C)ccc3C)cc2)nc1-c1ccc(C#N)cc1
6.00 to 7.00

// query: COc1ccc(CN2CCOCC2)cc1NC(=O)c1ccc(Nc2ncc(SC)c(-c3ccc(F)cc3)n2)cc1
6.00 to 7.00

// query: CSc1cnc(Nc2ccc(C(=O)Nc3cc(CN4CCOCC4)ccc3C)cc2)nc1-c1ccc(OC(F)(F)F)cc1
> 7.00

// query: CCN(CC)Cc1ccc(C)c(NC(=O)c2ccc(Nc3cc(-c4ccc(OC(F)(F)F)cc4)c(SC)cn3)cc2)c1
> 7.00

----------
# pIC50 values compiled below
target: Smo D473H mutant (Homo sapiens, UniProt Q99835, D473H); assay: Reporter assay of C3H10T1/2-Gli-Luc cells transfected with Smo D473H mutant, without SAG; conditions: C3H10T1/2 cells transfected with pLPCX-SMO-D473H, no SAG, 48 hr; read-out: Inhibition of C3H10T1/2-Gli-Luc-Smo-D473H [IC50
pIC50: −log10 of the molar value.

Solved cases below.
CSc1cnc(Nc2ccc(C(=O)Nc3ccccc3C)cc2)nc1-c1ccc(OC(F)(F)F)cc1 ... 6.00 to 7.00
CCOc1cnc(Nc2ccc(C(=O)Nc3cc(CN4CCN(C)CC4)ccc3C)cc2)nc1-c1ccc(F)cc1 ... > 7.00

# next compound below
Suppose we examine the compound CSc1cnc(Nc2ccc(C(=O)Nc3ccccc3C)cc2F)nc1-c1cccnc1F ; what pIC50 value has been reported?
6.00 to 7.00

----------
# IC50 values compiled below
biological target: Smo D473H mutant (Homo sapiens, UniProt Q99835, D473H); experiment: Reporter assay of C3H10T1/2-Gli-Luc cells transfected with Smo D473H mutant, without SAG; conditions: C3H10T1/2 cells transfected with pLPCX-SMO-D473H, no SAG, 48 hr; read-out: Inhibition of C3H10T1/2-Gli-Luc-Smo-D473H [IC50

CSc1cnc(Nc2ccc(C(=O)Nc3cc(CN4CCN(C)CC4)ccc3C)cc2)nc1-c1ccc(F)cc1 [Compound 36] ... 100 to 1000 nM
CCOc1ccc(-c2nc(Nc3ccc(C(=O)Nc4ccc(Cl)c(C(F)(F)F)c4)cc3)ncc2SC)cn1 [Compound 7] ... 100 to 1000 nM
CCOc1cnc(Nc2ccc(C(=O)Nc3cc(CN4CCN(C)CC4)ccc3C)cc2)nc1-c1ccc(OC(F)(F)F)cc1 [Compound 73] ... 100 to 1000 nM
COc1cnc(Nc2ccc(C(=O)Nc3cc(CN4CCOCC4)ccc3C)cc2F)nc1-c1ccc(F)cc1 [Compound 60] ... < 100 nM
CCOc1cnc(Nc2ccc(C(=O)Nc3cc(CN(CC)CC)ccc3C)cc2)nc1-c1ccc(F)cc1 [Compound 77] ... 100 to 1000 nM
CSc1cnc(Nc2ccc(C(=O)Nc3cc(CN(C)C)ccc3C)cc2)cc1-c1ccc(OC(F)(F)F)cc1 [Compound 83] ... < 100 nM

Suppose we examine the compound CSc1cnc(Nc2ccc(C(=O)Nc3ccccc3C)cc2)nc1-c1cccnc1F [Compound 11] ; what IC50 value has been reported?
100 to 1000 nM

// query: CSc1cnc(Nc2ccc(C(=O)Nc3cccc(CN4CCOCC4)c3)cc2F)nc1-c1ccc(OC(F)(F)F)cc1 [Compound 44]
< 100 nM

// query: CSc1cnc(Nc2ccc(C(=O)Nc3cc(CN4CCOCC4)ccc3C)cc2)nc1-c1ccc(F)nc1 [Compound 67]
100 to 1000 nM

// query: COc1ccc(CN2CCOCC2)cc1NC(=O)c1ccc(Nc2ncc(SC)c(-c3ccc(OC(F)(F)F)cc3)n2)c(F)c1 [Compound 58]
100 to 1000 nM

// query: CSc1cnc(Nc2ccc(C(=O)Nc3cccc(CN4CCOCC4)c3)cc2)nc1-c1ccc(F)cc1 [Compound 43]
100 to 1000 nM

----------
# pIC50 values compiled below
target: Smo D473H mutant (Homo sapiens, UniProt Q99835, D473H); assay: Reporter assay of C3H10T1/2-Gli-Luc cells transfected with Smo D473H mutant, without SAG; conditions: C3H10T1/2 cells transfected with pLPCX-SMO-D473H, no SAG, 48 hr; read-out: Inhibition of C3H10T1/2-Gli-Luc-Smo-D473H [IC50
pIC50: −log10 of the molar value.

Solved cases below.
CSc1cnc(Nc2ccc(C(=O)Nc3cccc(CN4CCOCC4)c3)cc2)nc1-c1ccc(C(F)(F)F)nc1 ... 6.00 to 7.00
CSc1cnc(Nc2ccc(C(=O)Nc3cc(CN4CCOCC4)ccc3F)cc2)nc1-c1ccc(F)cc1 ... > 7.00
CSc1cnc(Nc2ccc(C(=O)Nc3cc(CN4CCOCC4)ccc3F)cc2F)nc1-c1ccc(OC(F)(F)F)cc1 ... > 7.00
CSc1cnc(Nc2ccc(C(=O)Nc3cc(CN4CCOCC4)ccc3C)cn2)nc1-c1ccc(OC(F)(F)F)cc1 ... > 7.00

Suppose we examine the compound CSc1cnc(Nc2ccc(C(=O)Nc3ccccc3)cc2)nc1-c1ccc(C#N)cc1 ; what pIC50 value has been reported?
6.00 to 7.00

// query: COc1cccc(OC)c1NC(=O)c1ccc(Nc2ncc(SC)c(-c3cccnc3F)n2)cc1
6.00 to 7.00

// query: CSc1cnc(Nc2ccc(C(=O)Nc3cc(CN4CCOCC4)ccc3F)cc2)nc1-c1ccc(OC(F)(F)F)cc1
> 7.00

// query: CSc1cnc(Nc2ccc(C(=O)Nc3cc(CN4CCOCC4)ccc3C)cc2)nc1-c1ccc(C(F)(F)F)nc1
6.00 to 7.00

// query: CSc1cnc(Nc2ccc(C(=O)Nc3cc(CN4CCOCC4)ccc3C)cc2)cc1-c1ccc(OC(F)(F)F)cc1
> 7.00

// query: CSc1cnc(Nc2ccc(C(=O)Nc3cccc(CN4CCOCC4)c3)cc2)nc1-c1ccc(OC(F)(F)F)cc1
6.00 to 7.00
